target: T1, P8A-bN
T1 chain: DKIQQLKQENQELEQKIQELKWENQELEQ
measurement.notes: two-hybrid library CCNG1;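 note: natural log of median RNA to DNA barcode read ratio; higher means stronger binding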
Answer condition not met if interaction score is under -0.3, and condition met if it is -0.3 or more.

Query string: Test whether the binder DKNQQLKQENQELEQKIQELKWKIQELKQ [P10A-bN] records interaction score of -0.3 or higher.
Result string: condition not met

Query string: How about DKIQQLKQENQELEQKIQELKWENQELEQ [P8A-bN] ?
Result string: condition not met

Query string: For DENQQLEQKIQELKQKNQELKWEIQELEQ [P5A-bN] then?
Result string: condition not met

Query string: Likewise for DEIQQLEQENQELEQENQELEWEIQELEQ [P1A-bN] ?
Result string: condition not met

Query string: How about this binder: DKIQQLKQKNQELKQKNQELKWKIQELKQ [P2A-bN]
Result string: condition met

Query string: # repeat for DENQQLEQEIQELEQEIQELEWKNQELKQ [P11A-bN]
Result string: condition met

Query string: Continue with DENSQLEQEISELEQENSELEWKISQLKQ [O14-bS]
Result string: condition not met
